- Study system: HLA-A*0301 (human)
- Test details: competition with 125I-labelled standard peptide for purified HLA, gel filtration
Use 0.0004 as the dividing line for binding affinity ratio (IC50 of standard peptide / IC50 of test peptide), with the line itself on the t side and lower values as f.

(Q) hey, is binding affinity ratio (IC50 of standard peptide / IC50 of test peptide) for this one >= 0.0004? DIILECVYCK (modifications not checked)
(A) t

(Q) hey, is binding affinity ratio (IC50 of standard peptide / IC50 of test peptide) for this one >= 0.0004? YAVCDKCLK (modifications not checked)
(A) f

(Q) hey, is binding affinity ratio (IC50 of standard peptide / IC50 of test peptide) for this one >= 0.0004? WTGRCMSCCR (modifications not checked)
(A) f

(Q) hey, is binding affinity ratio (IC50 of standard peptide / IC50 of test peptide) for this one >= 0.0004? LLIRCINCQK (modifications not checked)
(A) t

(Q) hey, is binding affinity ratio (IC50 of standard peptide / IC50 of test peptide) for this one >= 0.0004? CMSCCRSSR (modifications not checked)
(A) t

(Q) hey, is binding affinity ratio (IC50 of standard peptide / IC50 of test peptide) for this one >= 0.0004? CVYCKQQLLR (modifications not checked)
(A) f

(Q) hey, is binding affinity ratio (IC50 of standard peptide / IC50 of test peptide) for this one >= 0.0004? GTTLEQQYNK (modifications not checked)
(A) f
